Reference source for all entries: a melting point compilation (Tetko et al.; mined from patent text by program, amines drawn as free bases though some values may be those of a salt)

Each record here notes measured melting point.

Here is how some compounds turned out for melting point.
* CN1CCN(c2cc(Cl)cc3c2c(=O)n(Cc2ccc(N)cc2)c(=O)n3Cc2ccccc2)CC1 | 93 to 96 °C
* COc1cc(CCC(=O)O)ccc1OCc1oc(-c2ccc(C(F)(F)F)cc2)nc1C | 162 to 163 °C
* O=S(=O)(c1ccccc1)c1ccc(Oc2ccc(Cl)c(Cl)c2)cc1 | 145 to 146 °C
* CN(C)CCCCC(=O)NC(Cc1c[nH]c2ccccc12)C(=O)CCc1cc(C(F)(F)F)cc(C(F)(F)F)c1 (stereo unspecified) | 140 °C
* CC(C)c1nc(-c2ccccc2Cc2ccccc2)cc(-c2ccc(F)cc2)c1C=O | 205 to 207 °C

Okay, next one:
Would you mind telling me what melting point value was observed for CCCCc1oc2ccccc2c1C(=O)Nc1ccc2cc(OCC(=O)OC)ccc2c1 ? 131 to 133 °C

----------
PROPERTY: melting point

• CC(C)CC(=O)Nc1cccc(-c2ccnc3c(-c4ccc5c(c4)OCO5)cnn23)c1 = 172 to 173 °C
• CS(=O)(=O)c1ccc(Cl)c2[nH]ccc12 = 160 to 162 °C
• COC(=O)c1cc(C(=O)OC)n(C(c2ccccc2)(c2ccccc2)c2ccccc2)n1 = 212 to 214 °C
• COC(=O)C1CCCN1C(=O)Cc1c(C)cc(C)cc1C (stereo not given) = 74 °C
• C=CCN1C(=O)C2=C(c3ccccc3)N(CC=C)C(=O)C2=C1c1ccccc1 = 216 to 217 °C
• CCCCCCCCCCCC(=O)OC1CC(c2ccccc2)N(O)C(c2ccccc2)C1 (stereo not given) = 89 to 90 °C

What measured melting point goes with Cc1ccc(S(=O)(=O)OCC(COC(=O)c2ccccc2)OS(=O)(=O)c2ccc(C)cc2)cc1 (single isomer, unassigned; (-)) ? 105 to 106 °C

Bench note: what melting point did CC(C)(C)c1cc(CCc2cc(F)cc(F)c2NC(=O)NC(C)(C)c2ccc(Cl)c(Cl)c2)cc(C(C)(C)C)c1O show? 224 to 226 °C

melting point lookup needed for O=C1CC[C@H]2N1CCN1C(=O)C[C@H]3CCCC[C@@]321 (relative stereo) , thanks. 135 to 136 °C

Please report the recorded melting point for COC(=O)c1ccc(S(C)(=O)=O)c(CBr)c1Cl . 77 to 78 °C

Looking for the measured melting point of CCOCOC1CCC2(C)C(=CCC3C2CCC2(C)C(C(C)CCCC(C)C)CCC32)C1 (stereo not given) , can you help? 64 to 66 °C

Entry CC(C)(C)c1ccc(C(=O)N[C@H]2CC[C@H](CCN3CCC(c4cccc5c4CCO5)CC3)CC2)cc1 : reported melting point = ? 208 °C

Which melting point value belongs to O=C(Cl)c1cc(Oc2ccc(Br)cc2)cc(C(=O)Cl)c1 ? 80 to 81 °C

Entry under review: COC(=O)C(CCCCNC(=O)COCc1ccccc1)NC(=O)COCc1ccccc1 (stereo not given) . Reported melting point? 62 to 65 °C

For the compound shown here, Cn1cc(-c2cc(-c3cnc4c(c3)CCC(=O)N4)ccn2)n(-c2ccc(C(C)(C)C#N)cc2)c1=O , give the reported melting point. 284 °C

Param item = COc1cccc(C(=O)c2ccc(C(F)(F)F)cc2)c1 ; retrieve measured melting point. 69 °C

Item under review: CS(=O)(=O)Nn1c(=O)[nH]c2cc([N+](=O)[O-])c(-n3cnc(CO)c3)cc2c1=O . Reported melting point? > 300 °C

For the compound shown here, COC(=O)C(=O)c1ccc(OCCSc2ccccc2)cc1 , give the reported melting point. 49 to 51 °C

Quick one: melting point for Cc1ccc(Nc2ncc(C#N)c(-c3ccc(C(C)(C)N)cc3)n2)cc1F ? 209 °C

Entry under review: COc1ccc(C=C(Cl)Cl)c(C(=O)O)c1 . Reported melting point? 164 to 166 °C

// lookup melting point for O=C(O)[C@@H]1CSC(=O)N1Cc1ccccc1 95 to 97 °C

What value of melting point has been reported for the following compound? Cc1cc(C=O)ccc1C(N)=O 119 to 121 °C
